So I've got a bunch of compounds here, and I need their pEC50 values.
- Measurement Target: Neuronal acetylcholine receptor subunit alpha-7 (Homo sapiens, UniProt P36544)
- Sequence (P36544 whole entry): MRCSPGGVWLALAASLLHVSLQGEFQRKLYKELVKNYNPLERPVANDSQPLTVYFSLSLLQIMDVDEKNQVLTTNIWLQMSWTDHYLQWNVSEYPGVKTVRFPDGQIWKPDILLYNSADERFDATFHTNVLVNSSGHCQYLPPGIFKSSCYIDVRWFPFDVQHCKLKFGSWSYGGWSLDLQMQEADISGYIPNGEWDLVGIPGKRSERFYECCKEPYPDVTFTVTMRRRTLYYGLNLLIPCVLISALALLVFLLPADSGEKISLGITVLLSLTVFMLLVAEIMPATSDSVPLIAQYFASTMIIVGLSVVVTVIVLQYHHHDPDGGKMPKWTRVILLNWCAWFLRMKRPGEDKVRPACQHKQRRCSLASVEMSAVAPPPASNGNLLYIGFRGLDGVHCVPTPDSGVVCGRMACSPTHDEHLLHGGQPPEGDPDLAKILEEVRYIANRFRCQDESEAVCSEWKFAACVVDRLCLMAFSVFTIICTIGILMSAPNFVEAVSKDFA
- Measurement Description: Agonist activity at human alpha7 nAChR
- Type: functional
Please report pEC50 as the negative decimal logarithm of the molar concentration, giving only the number.

# input So what's the measured pEC50 for this one? c1cnc2c(c1)C[C@@]1(CN3CCC1CC3)O2 [AZD0328]
# output 6.47

# input Sample c1cc(-c2cnc3c(c2)C[C@@]2(CN4CCC2CC4)O3)co1 — what was its pEC50?
# output 6.33

* * *

- Measurement Target: 5-hydroxytryptamine receptor 3A (Homo sapiens)
- Sequence (P46098 whole entry): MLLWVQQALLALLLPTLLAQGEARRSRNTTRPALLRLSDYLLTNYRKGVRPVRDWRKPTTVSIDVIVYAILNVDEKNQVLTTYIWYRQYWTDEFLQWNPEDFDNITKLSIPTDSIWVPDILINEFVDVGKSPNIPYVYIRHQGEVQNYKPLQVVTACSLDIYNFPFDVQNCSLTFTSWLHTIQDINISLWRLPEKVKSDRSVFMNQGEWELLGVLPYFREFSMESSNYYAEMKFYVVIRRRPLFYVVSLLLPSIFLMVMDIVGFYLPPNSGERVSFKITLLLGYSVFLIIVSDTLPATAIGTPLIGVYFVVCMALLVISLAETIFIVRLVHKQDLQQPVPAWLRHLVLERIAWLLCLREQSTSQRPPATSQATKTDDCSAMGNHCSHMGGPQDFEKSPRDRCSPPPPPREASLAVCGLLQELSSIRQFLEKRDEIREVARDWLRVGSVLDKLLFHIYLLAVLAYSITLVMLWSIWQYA
Measured Metric: Kd (µM)
Write the answer as a number in µM, unit excluded.

# input Requested read-out Kd, target or system 5-hydroxytryptamine receptor 3A (Homo sapiens), entry C[C@H](OC(=O)N[C@@H]1CN2CCC1CC2)c1ccccc1F
# output 13
